biological target: Neurotensin receptor type 1 (Mus musculus); assay: Inhibition of specific binding of [125I]-Tyr3-NT(1-13) to NT receptors in neonatal mouse whole brain (minus cerebellum)
Sequence (O88319 whole entry): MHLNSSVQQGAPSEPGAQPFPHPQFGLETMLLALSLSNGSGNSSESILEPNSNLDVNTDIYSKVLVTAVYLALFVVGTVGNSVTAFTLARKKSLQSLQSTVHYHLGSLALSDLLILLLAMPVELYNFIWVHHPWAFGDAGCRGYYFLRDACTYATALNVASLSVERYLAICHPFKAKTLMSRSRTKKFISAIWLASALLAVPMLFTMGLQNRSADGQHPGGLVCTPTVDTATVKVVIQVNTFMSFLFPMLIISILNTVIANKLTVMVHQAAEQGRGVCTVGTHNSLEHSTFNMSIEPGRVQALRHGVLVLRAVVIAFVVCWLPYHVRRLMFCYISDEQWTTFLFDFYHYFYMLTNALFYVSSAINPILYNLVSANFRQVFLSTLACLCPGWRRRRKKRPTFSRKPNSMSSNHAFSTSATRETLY
Peptide text beside a SMILES is read from it.
Could you please report measured pKi for the items listed next?
Schema: pKi number; meaning minus log10 of the concentration expressed in molar units.

## Input Name the recorded pKi of the compound listed here: `CC[C@H](C)[C@H](NC(=O)[C@H](Cc1ccc(O)cc1)NC(=O)[C@@H]1CCCN1C(=O)[C@H](CCCNC(=N)N)NC(=O)[C@@H](N)CCCNC(=N)N)C(N)=O`
## Output 4.92

## Input Name the recorded pKi of the compound listed here: CC[C@H](C)[C@H](NC(=O)[C@H](Cc1ccc(O)cc1)NC(=O)[C@@H]1CCCN1C(=O)[C@H](CCCNC(=N)N)NC(=O)[C@H](CCCNC(=N)N)NC(=O)[C@@H]1CCCN1C(=O)[C@H](CCCCN)NC(=O)[C@H](CC(N)=O)NC(C)=O)C(=O)N[C@@H](CC(C)C)C(=O)O (Ac-NKPRRPYIL-OH)
## Output 10.89

## Input Name the recorded pKi of the compound listed here: CC[C@H](C)[C@H](NC(=O)[C@H](Cc1ccc(O)cc1)NC(=O)[C@@H]1CCCN1C(=O)[C@H](CCCNC(=N)N)NC(=O)[C@H](CCCNC(=N)N)NC(=O)[C@@H]1CCCN1C(=O)[C@H](CCCCN)NC(=O)[C@H](CC(N)=O)NC(=O)[C@H](CCC(=O)O)NC(C)=O)C(=O)N[C@@H](CC(C)C)C(=O)O (Ac-ENKPRRPYIL-OH)
## Output 9.92

## Input Name the recorded pKi of the compound listed here: `CC[C@H](C)[C@H](NC(=O)[C@H](Cc1ccc(O)cc1)NC(=O)[C@@H]1CCCN1C(=O)[C@H](CCCNC(=N)N)NC(=O)[C@@H](N)CCCNC(=N)N)C(=O)N[C@@H](C)C(=O)O`
## Output 6.70
